Listed here are compounds together with their documented selectivity ratio.
- assay-text: Selectivity index, ratio of TC50 for MDCK cells to IC50 for Influenza B virus (strain B/Jifang/13/97)
- Format: toxicity, cell-based
- conditions: dog, read-out: Selectivity Index
measured-quantity: selectivity ratio

> print(dat)
                                 mol.smiles  reported.relation  readout.number
1  CCC(=O)Nc1cc(C(=O)Nc2ccc([N+](=O)[O-])cc2)ccc1OC                  =             4.7
2  COc1ccc(C(=O)Nc2ccccc2)cc1NC(=O)c1ccccc1                  =               9
3  NC(=O)c1ncn([C@@H]2O[C@H](CO)[C@@H](O)[C@H]2O)n1                  =             104
4         CCC(=O)Nc1cc(C(=O)Nc2nccs2)ccc1OC                  >             5.2

###

Listed here are compounds together with their documented selectivity ratio.
- assay-text: Selectivity index, ratio of TC50 for MDCK cells to IC50 for Influenza A virus (A/Guangdong-Luohu/219/2006(H1N1))
- Format: toxicity, cell-based
- conditions: dog, read-out: Selectivity Index
measured-quantity: selectivity ratio

> print(dat)
                                   compound  measured.quantity  reported.relation  readout.number
1        CCC(=O)Nc1cc(NC(=O)c2ccccc2)ccc1OC  selectivity ratio                  =             5.2
2  COc1ccc(C(=O)Nc2ccccc2)cc1NC(=O)C(C)F (stereo unspecified)  selectivity ratio                  >               3
3        CCC(=O)Nc1cc(C(=O)Oc2ccccc2)ccc1OC  selectivity ratio                  =             2.1
4     CCC(=O)Nc1cc(C(=O)Nc2ccc(C)cc2)ccc1OC  selectivity ratio                  =             6.8
5    CCC(=O)Nc1cc(S(=O)(=O)Nc2ccccc2)ccc1OC  selectivity ratio                  >            12.4
6   COc1ccc(C(=O)Nc2ccccc2)cc1NC(=O)C1CCCC1  selectivity ratio                  =            12.1

###

- assay-text: Selectivity index, ratio of TC50 for MDCK cells to IC50 for Influenza A virus (A/Guangdong-Luohu/219/2006(H1N1))
- Type: toxicity, cell-based
- conditions: dog, read-out: Selectivity Index
Listed here are molecules together with their documented selectivity ratio.
measured-quantity: selectivity ratio

> print(dat)
                                   molecule  result
1  COc1ccc(C(=O)Nc2ccccc2)cc1NC(=O)C(C)Cl (stereo unspecified)    11.6
2  NC(=O)c1ncn([C@@H]2O[C@H](CO)[C@@H](O)[C@H]2O)n1 [RIBAVIRIN]     542
3        CCC(=O)Nc1cc(C(=O)Nc2ccccc2)ccc1OC  > 15.6
4         COc1ccc(C(=O)Nc2ccccc2)cc1NC(C)=O   > 6.2
5  COc1cc(NC(=O)C(C)F)cc(C(=O)Nc2ccccc2)c1 (stereo unspecified)     2.3
6     CCC(=O)Nc1cc(C(=O)N(C)c2ccccc2)ccc1OC     4.4

// provenance: ChEMBL document CHEMBL2062433
